Molecular target: T1, DegS I232A (E. coli, UniProt P0AEE3 27-355, I232A)
T1 sequence (looked up): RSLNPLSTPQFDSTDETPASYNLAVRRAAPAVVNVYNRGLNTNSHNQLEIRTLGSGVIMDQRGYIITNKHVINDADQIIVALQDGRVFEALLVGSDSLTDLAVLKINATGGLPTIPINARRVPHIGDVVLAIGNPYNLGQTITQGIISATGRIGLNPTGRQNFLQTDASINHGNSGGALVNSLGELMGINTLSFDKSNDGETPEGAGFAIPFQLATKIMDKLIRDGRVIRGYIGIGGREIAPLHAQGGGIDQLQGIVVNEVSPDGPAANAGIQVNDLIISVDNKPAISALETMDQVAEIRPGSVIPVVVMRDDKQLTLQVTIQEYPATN
Assay: fluorescence polarisation
Where no end group is shown, it is not given here. fluorescein = fluorescein, a fluorescent label on the peptide N-terminus
MEASURED PARAMETER: pKd
To interpret pKd, take it as minus log10 of a concentration measured in moles per litre.

I'd like to know its pKd. The binder in question is fluorescein-DNRDGNVYYF [fluorescent OMP peptide fluorescein-DNRDGNVYYF]
5.66
